# tested.system: human MDM2 protein (amino acids 2-188) (Homo sapiens, UniProt Q00987)
# Construct: human MDM2 protein (amino acids 2-188); made in house
# Sequence (Q00987 2-188): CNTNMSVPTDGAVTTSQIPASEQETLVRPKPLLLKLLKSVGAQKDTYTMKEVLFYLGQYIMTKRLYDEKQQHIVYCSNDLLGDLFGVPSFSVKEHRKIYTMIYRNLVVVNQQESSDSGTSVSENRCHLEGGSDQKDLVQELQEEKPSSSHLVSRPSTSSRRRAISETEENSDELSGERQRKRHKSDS
# test.method.notes: p53-MDM2 TR-FRET assay (p53-MDM2 Assay 1)
# Assay type: binding
# stated.conditions: 1.25 nM MDM2-biotinylated, 10 nM Cy5-p53 peptide; read-out: IC50 (μM) of p53-Hdm2 inhibition (TR-FRET) Assay 1
parameter: IC50 (µM)
Give the quantity in µM, number only.

Please report IC50 for the following molecule: COc1cc2c(cc1OC(C)C)[C@H](c1ccc(Cl)cc1)N(c1ccc(C(C)(O)C3CN(C(=O)OC(C)(C)C)C3)cc1)C(=O)C2 (stereo partly shown)
0.0072

Please report IC50 for the following molecule: COc1cc2c(cc1OC(C)C)[C@H](c1ccc(Cl)cc1)N(c1ccc(C(C)(O)c3ccn(C)n3)cc1)C(=O)C2 (stereo partly shown)
0.0494

Please report IC50 for the following molecule: COc1ccc(C(O)c2ccc(N3C(=O)Cc4cc(OC)c(OC(C)C)cc4[C@@H]3c3ccc(Cl)cc3)cc2)cc1 (stereo partly shown)
0.0107

Please report IC50 for the following molecule: COc1cc2c(cc1OC(C)C)[C@H](c1ccc(Cl)cc1)N(c1ccc(C(O)C3CCCCC3)cc1)C(=O)C2 (stereo partly shown)
0.0316

Please report IC50 for the following molecule: COc1cc2c(cc1OC(C)C)[C@H](c1ccc(Cl)cc1)N(c1ccc(C(C)(O)C3CCN(C4CCC4)CC3)cc1)C(=O)C2 (stereo partly shown)
0.0025

Please report IC50 for the following molecule: COc1cc2c(cc1OC(C)C)[C@H](c1ccc(Cl)cc1)N(c1ccc(C(C)(O)C3CCN(C(=O)NC(C)C)CC3)cc1)C(=O)C2 (stereo partly shown)
0.0056

Please report IC50 for the following molecule: COc1cc2c(cc1OC(C)C)[C@H](c1ccc(Cl)cc1)N(c1ccc(C(C)(O)C3CC4CCC(C3)S4(=O)=O)cc1)C(=O)C2 (mixture of isomers)
0.0079

Please report IC50 for the following molecule: COc1cc2c(cc1OC(C)C)[C@H](c1ccc(Cl)cc1)N(c1ccc(C(C)(O)C3CC4CCCC(C3)O4)cc1)C(=O)C2 (stereo partly shown)
0.0041

Please report IC50 for the following molecule: COc1cc2c(cc1OC(C)C)[C@H](c1ccc(Cl)cc1)N(c1ccc(C(C)(O)C3CN(C(=O)N(C)C)C3)cc1)C(=O)C2 (stereo partly shown)
0.0152

Please report IC50 for the following molecule: COc1cc2c(cc1OC(C)C)[C@H](c1ccc(Cl)cc1)N(c1ccc(C(C)(O)C3CCN(C(=O)COC(C)=O)CC3)cc1)C(=O)C2 (mixture of isomers)
0.0023

Please report IC50 for the following molecule: CC(C)Oc1cc2c(cc1OCC(=O)N(C)C)CC(=O)N(c1ccc(C(C)(O)C3CCOCC3)cc1)[C@H]2c1ccc(Cl)cc1 (stereo partly shown)
0.0101

Please report IC50 for the following molecule: COc1cc2c(cc1OC(C)C)[C@H](c1ccc(Cl)cc1)N(c1ccc([C@](C)(O)C3CCN(C)CC3)cc1)C(=O)C2 (single isomer, unassigned)
0.129

Please report IC50 for the following molecule: COc1cc2c(cc1OC(C)C)[C@H](c1ccc(Cl)cc1)N(c1ccc(C(C)(O)C3CCN(C)CC3)cc1)C(=O)C2 (mixture of isomers)
0.0051

Please report IC50 for the following molecule: COc1cc2c(cc1OC(C)C)[C@H](c1ccc(Cl)cc1)N(c1ccc(C(C)(O)C3CCNC(=O)C3)cc1)C(=O)C2 (stereo partly shown)
0.011

Please report IC50 for the following molecule: COc1cc2c(cc1OC(C)C)[C@H](c1ccc(Cl)cc1)N(c1ccc(C(C)(O)c3ccc(NC(C)=O)cc3)c(F)c1)C(=O)C2 (stereo partly shown)
0.0066

Please report IC50 for the following molecule: COc1cc2c(cc1OC(C)C)[C@H](c1ccc(Cl)cc1)N(c1ccc(C(C)(O)C3CCN(CC(F)(F)F)CC3)cc1)C(=O)C2 (stereo partly shown)
0.011

Please report IC50 for the following molecule: CCC(C)(O)c1ccc(N2C(=O)Cc3cc(OC)c(OC(C)C)cc3[C@@H]2c2ccc(Cl)cc2)cc1 (stereo partly shown)
0.0267

Please report IC50 for the following molecule: COCCOc1cc2c(cc1OC(C)C)[C@H](c1ccc(Cl)cc1)N(c1ccc(C(C)(O)C3CCOCC3)cc1)C(=O)C2 (stereo partly shown)
0.0083

Please report IC50 for the following molecule: COc1cc2c(cc1OC(C)C)[C@H](c1ccc(Cl)cc1)N(c1ccc(C(C)(O)C3CCN(S(C)(=O)=O)CC3)cc1)C(=O)C2 (stereo partly shown)
0.0057

Please report IC50 for the following molecule: COc1cc2c(cc1OC(C)C)[C@H](c1ccc(Cl)cc1)N(c1ccc(C(C)(O)C3CCN(C(=O)CC#N)CC3)cc1)C(=O)C2 (stereo partly shown)
0.0114

Please report IC50 for the following molecule: COc1cc2c(cc1OC(C)C)[C@H](c1ccc(Cl)cc1)N(c1ccc(C(C)(O)C3CC[S+]([O-])CC3)cc1)C(=O)C2 (stereo partly shown)
0.0096

Please report IC50 for the following molecule: COc1cc2c(cc1OC(C)C)[C@H](c1ccc(Cl)cc1)N(c1ccc(C(C)(O)c3ccc(NC(C)=O)cc3)cn1)C(=O)C2 (stereo partly shown)
0.0112

Please report IC50 for the following molecule: COc1cc2c(cc1OC(C)C)[C@H](c1ccc(Cl)cc1)N(c1ccc([C@@](C)(O)C3CCN(C(C)=O)CC3)cc1)C(=O)C2 (single isomer, unassigned)
0.0017

Please report IC50 for the following molecule: COc1cc2c(cc1OC(C)C)[C@H](c1ccc(Cl)cc1)N(c1ccc(C(C)(O)C3CCN(C(C)C)CC3)cc1)C(=O)C2 (stereo partly shown)
0.0043

Please report IC50 for the following molecule: COc1cc2c(cc1OC(C)C)[C@H](c1ccc(Cl)cc1)N(c1ccc(C(C)(O)C3CN(C4CCCCC4)C3)cc1)C(=O)C2 (stereo partly shown)
0.0279
